These entries and their values trace back to patent US20140249135A1.

testTarget: Pim2 kinase (Homo sapiens, UniProt Q9P1W9)
Sequence (Q9P1W9 whole entry): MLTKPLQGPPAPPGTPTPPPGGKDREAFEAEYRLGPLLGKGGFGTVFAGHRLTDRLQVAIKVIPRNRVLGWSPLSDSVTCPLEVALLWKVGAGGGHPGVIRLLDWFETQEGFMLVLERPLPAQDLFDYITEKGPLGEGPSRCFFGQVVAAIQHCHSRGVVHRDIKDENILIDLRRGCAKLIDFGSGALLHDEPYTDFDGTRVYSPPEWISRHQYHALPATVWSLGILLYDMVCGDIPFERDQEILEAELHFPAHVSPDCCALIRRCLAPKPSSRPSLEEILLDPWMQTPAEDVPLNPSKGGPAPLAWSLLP
assayOverview: Pim2 ATP depletion assay;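 further: Luciferase-based luminescent readout of ATP remaining after PIM2 phosphorylates a BAD peptide, final 5 nM enzyme, 4 µM ATP, 10 µM peptide, 2.5% DMSO, run to roughly half ATP consumption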
Type: biochemical
cond: read-out: IC50 (μM) PIM2
# IC50 per record follows

Worked examples, 5 compounds total:
Request: Give the reported value of IC50 for this record: COc1cc(F)c(-c2ccc(N)c(C(=O)Nc3cnccc3N3CCC[C@H](N)C3)n2)cc1F [Example 477]
Result: < 1 µM

Request: Give the reported value of IC50 for this record: Nc1nccnc1C(=O)Nc1cc(C(=O)c2ccccc2)ccc1N1CCCC(N)C1 (stereo not shown) [Example 231]
Result: > 25 µM

Request: Give the reported value of IC50 for this record: Cc1cc(Cl)ccc1-c1ccc(N)c(C(=O)Nc2cnccc2N2CCC[C@H](N)C2)n1 [Example 429]
Result: < 1 µM

Request: Give the reported value of IC50 for this record: Nc1ccc(-c2c(F)cccc2F)nc1C(=O)Nc1cnccc1N1CCC[C@@H](N)C1 [Example 462]
Result: < 1 µM

Request: Give the reported value of IC50 for this record: CS(=O)(=O)c1ccc(N2CCC(N)CC2)c(NC(=O)c2nccnc2N)c1 [Example 234]
Result: > 25 µM

Next:
Request: Give the reported value of IC50 for this record: CC(=O)c1ccc(N2CCNCC2)c(NC(=O)c2nccnc2N)c1 [Example 219]
Result: 10 to 25 µM

Request: Give the reported value of IC50 for this record: COc1ccc(-c2cnc(N)c(C(=O)Nc3ccccc3N3CCC(N)CC3)n2)cc1 [Example 381]
Result: < 1 µM

----------
# EC50 per record follows
System: KMS 11 (human myeloma cell line)
assayOverview: Cell proliferation assay (CellTiter-Glo), KMS 11
Format: cell-based
cond: KMS11 cells, read-out: EC50 (μM) KMS11

Worked examples, 8 compounds total:
Request: Give the reported value of EC50 for this record: `Nc1ccc(-c2c(F)cccc2F)nc1C(=O)Nc1cnccc1N1CC[C@H](F)[C@@H](N)C1`
Result: 1 to 5 µM

Request: Give the reported value of EC50 for this record: `CC(C)NC(=O)c1ccc(F)c(-c2ccc(N)c(C(=O)Nc3cnccc3N3C[C@@H](N)C[C@@H](F)C3)n2)c1`
Result: < 1 µM

Request: Give the reported value of EC50 for this record: `Nc1cc(F)c(-c2ccccc2F)nc1C(=O)Nc1cnccc1N1CCC[C@H](N)C1`
Result: 1 to 5 µM

Request: Give the reported value of EC50 for this record: `N[C@H]1CCCN(c2ccncc2NC(=O)c2cccc(-c3c(F)cccc3F)n2)C1`
Result: 1 to 5 µM

Request: Give the reported value of EC50 for this record: `Nc1cc(F)c(-c2c(F)cccc2F)nc1C(=O)Nc1cnccc1N1CCC[C@H](N)C1`
Result: < 1 µM

Request: Give the reported value of EC50 for this record: `CCCOc1ccc(F)c(-c2nc(C(=O)Nc3cnccc3N3CCC[C@H](N)C3)c(N)cc2F)c1F`
Result: < 1 µM

Request: Give the reported value of EC50 for this record: Nc1ccc(-c2c(F)cccc2F)nc1C(=O)Nc1cnccc1N1CCCC2(CCNC2)C1 (centres unmarked)
Result: 1 to 5 µM

Request: Give the reported value of EC50 for this record: `CC(C)Oc1ccc(F)c(-c2nc(C(=O)Nc3cnccc3N3CCC[C@H](N)C3)c(N)cc2F)c1F`
Result: < 1 µM

Next:
Request: Give the reported value of EC50 for this record: `COCCOc1nc(-c2ccc(N)c(C(=O)Nc3cnccc3N3CCC[C@H](N)C3)n2)cnc1N`
Result: 5 to 10 µM

Request: Give the reported value of EC50 for this record: `CCCOc1ccc(F)c(-c2ccc(N)c(C(=O)Nc3cnccc3N3CCC[C@H](N)C3)n2)c1F`
Result: 1 to 5 µM

Request: Give the reported value of EC50 for this record: `Nc1ccc(-c2c(F)cccc2F)nc1C(=O)Nc1cnccc1N1CCC[C@@H](N)C1`
Result: 1 to 5 µM

----------
testTarget: Pim2 kinase (Homo sapiens)
assayOverview: Pim2 ATP depletion assay
Format: biochemical
cond: read-out: IC50 (μM) PIM2
# IC50 per record follows

Worked examples, 5 compounds total:
Request: Give IC50 only, for `Nc1ncc(Br)nc1C(=O)Nc1[nH]c(=O)ncc1-c1ccccn1` , using Pim2 kinase (Homo sapiens) data.
Result: < 1 µM

Request: Give IC50 only, for `Nc1cc(F)c(-c2c(F)ccc(OCc3ccccc3)c2F)nc1C(=O)Nc1cnccc1N1CCC[C@H](N)C1` , using Pim2 kinase (Homo sapiens) data.
Result: < 1 µM

Request: Give IC50 only, for `Nc1ccc(-c2c(F)cccc2F)nc1C(=O)Nc1cnccc1N1CC[C@H]2OC(=O)N[C@H]2C1` , using Pim2 kinase (Homo sapiens) data.
Result: < 1 µM

Request: Give IC50 only, for `COc1ccc(F)c(-c2nc(C(=O)Nc3cnccc3N3CCC[C@H](N)C3)c(N)cc2F)c1F` , using Pim2 kinase (Homo sapiens) data.
Result: < 1 µM

Request: Give IC50 only, for `Nc1nccnc1C(=O)Nc1cc(Cl)ccc1N1CCC(N)CC1` , using Pim2 kinase (Homo sapiens) data.
Result: 1 to 10 µM

Next:
Request: Give IC50 only, for `COc1ncccc1-c1ccc(N)c(C(=O)Nc2cnccc2N2CCC[C@H](N)C2)n1` , using Pim2 kinase (Homo sapiens) data.
Result: < 1 µM

Request: Give IC50 only, for `CC(C)Oc1ccc(F)c(-c2ccc(N)c(C(=O)Nc3cnccc3N3CCC[C@H](N)C3)n2)c1` , using Pim2 kinase (Homo sapiens) data.
Result: < 1 µM

Request: Give IC50 only, for `Nc1ncc(-c2ccccc2F)nc1C(=O)Nc1ccccc1N1CCC(N)CC1` , using Pim2 kinase (Homo sapiens) data.
Result: < 1 µM

Request: Give IC50 only, for `Nc1nccnc1C(=O)Nc1ccncc1N1CCCCC1` , using Pim2 kinase (Homo sapiens) data.
Result: 1 to 10 µM

Request: Give IC50 only, for `Nc1nc(N)c(C(=O)Nc2[nH]c(=O)ncc2N2CCC(F)(F)CC2)nc1Cl` , using Pim2 kinase (Homo sapiens) data.
Result: < 1 µM

Request: Give IC50 only, for `COc1ncc(-c2cnc(N)c(C(=O)Nc3ccccc3N3CCNCC3)n2)cn1` , using Pim2 kinase (Homo sapiens) data.
Result: > 25 µM

Request: Give IC50 only, for `CCCNC(=O)c1ccc(F)c(-c2ccc(N)c(C(=O)Nc3cnccc3N3CCC[C@H](N)C3)n2)c1` , using Pim2 kinase (Homo sapiens) data.
Result: < 1 µM

Request: Give IC50 only, for Nc1ncc(-c2ccccc2OC(F)(F)F)nc1C(=O)Nc1[nH]c(=O)ncc1N1CCCC(N)C1 (centres unmarked) , using Pim2 kinase (Homo sapiens) data.
Result: < 1 µM

Request: Give IC50 only, for Nc1nc(N)c(C(=O)Nc2[nH]c(=O)ncc2N2CCCC(C(F)(F)F)C2)nc1Cl (centres unmarked) , using Pim2 kinase (Homo sapiens) data.
Result: < 1 µM

Request: Give IC50 only, for `Cc1cnc(N)c(C(=O)Nc2cc(C(=O)c3ccccc3)ccc2N2CCNCC2)n1` , using Pim2 kinase (Homo sapiens) data.
Result: > 25 µM

Request: Give IC50 only, for `Nc1ncc(Br)nc1C(=O)Nc1cnccc1N1CCCCC1` , using Pim2 kinase (Homo sapiens) data.
Result: < 1 µM

Request: Give IC50 only, for `N[C@H]1CCCN(c2ccncc2NC(=O)c2cccc(-c3c(F)cccc3F)n2)C1` , using Pim2 kinase (Homo sapiens) data.
Result: < 1 µM

----------
testTarget: KDR kinase (Homo sapiens, UniProt P35968)
Sequence (P35968 20-1356): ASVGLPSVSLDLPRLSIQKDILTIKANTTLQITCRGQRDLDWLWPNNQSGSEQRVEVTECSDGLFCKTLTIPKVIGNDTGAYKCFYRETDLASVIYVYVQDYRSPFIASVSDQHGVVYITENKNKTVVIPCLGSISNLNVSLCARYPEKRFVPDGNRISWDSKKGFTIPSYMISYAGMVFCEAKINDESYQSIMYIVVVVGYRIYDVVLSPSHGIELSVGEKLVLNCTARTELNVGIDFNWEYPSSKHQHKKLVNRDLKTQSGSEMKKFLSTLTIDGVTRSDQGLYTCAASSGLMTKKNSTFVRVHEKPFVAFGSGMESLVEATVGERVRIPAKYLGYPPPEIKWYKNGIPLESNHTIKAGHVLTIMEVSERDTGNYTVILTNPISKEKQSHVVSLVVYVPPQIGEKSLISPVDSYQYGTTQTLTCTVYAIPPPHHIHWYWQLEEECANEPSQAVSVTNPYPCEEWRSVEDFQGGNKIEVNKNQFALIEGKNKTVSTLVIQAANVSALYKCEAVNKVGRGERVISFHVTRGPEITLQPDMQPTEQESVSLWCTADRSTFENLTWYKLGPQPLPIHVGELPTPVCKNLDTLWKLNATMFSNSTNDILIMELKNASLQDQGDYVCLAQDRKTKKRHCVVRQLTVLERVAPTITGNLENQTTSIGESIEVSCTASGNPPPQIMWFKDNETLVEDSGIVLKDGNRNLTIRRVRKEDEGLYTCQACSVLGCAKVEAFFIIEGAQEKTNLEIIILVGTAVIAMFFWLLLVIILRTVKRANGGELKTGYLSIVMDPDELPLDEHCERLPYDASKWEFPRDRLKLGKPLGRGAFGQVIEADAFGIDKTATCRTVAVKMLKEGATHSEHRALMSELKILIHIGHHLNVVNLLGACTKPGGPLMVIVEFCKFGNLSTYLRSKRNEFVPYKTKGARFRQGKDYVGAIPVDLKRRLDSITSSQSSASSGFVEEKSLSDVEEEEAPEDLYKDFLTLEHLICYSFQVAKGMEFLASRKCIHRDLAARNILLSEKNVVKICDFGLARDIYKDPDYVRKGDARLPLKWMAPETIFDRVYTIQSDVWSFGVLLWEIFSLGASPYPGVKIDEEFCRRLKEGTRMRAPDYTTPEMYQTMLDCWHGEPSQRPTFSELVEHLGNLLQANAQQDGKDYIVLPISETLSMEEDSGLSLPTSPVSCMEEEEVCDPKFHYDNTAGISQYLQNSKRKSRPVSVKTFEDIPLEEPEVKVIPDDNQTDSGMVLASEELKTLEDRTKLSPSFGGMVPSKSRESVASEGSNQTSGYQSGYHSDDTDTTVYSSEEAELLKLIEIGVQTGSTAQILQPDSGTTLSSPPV
assayOverview: KDR AlphaScreen assay
cond: KDR IC50 (μM)
# IC50 per record follows

Request: Give the reported value of IC50 for this record: NCC1CCCN(c2ccncc2NC(=O)c2nc(Cl)c(N)nc2N)C1 (centres unmarked) [Example 182]
Result: 1 to 10 µM

Request: Give the reported value of IC50 for this record: NC(=O)c1cccc(-c2cnc(N)c(C(=O)Nc3cnccc3N3CCCC(N)C3)n2)c1 (centres unmarked) [Example 369]
Result: < 1 µM

Request: Give the reported value of IC50 for this record: Nc1ccc(-c2cnc(N)c(C(F)(F)F)c2)nc1C(=O)Nc1cnccc1N1CCC[C@H](N)C1 [Example 482]
Result: 10 to 25 µM

Request: Give the reported value of IC50 for this record: CCCOc1ccc(F)c(-c2ncc(N)c(C(=O)Nc3cnccc3N3CCC[C@H](N)C3)n2)c1 [Example 550]
Result: 10 to 25 µM

Request: Give the reported value of IC50 for this record: Cc1ccccc1-c1nc(C(=O)Nc2cnccc2N2CCCC(N)C2)c(N)nc1N (centres unmarked) [Example 340]
Result: 10 to 25 µM

Request: Give the reported value of IC50 for this record: N#Cc1ccccc1-c1cnc(N)c(C(=O)Nc2cnccc2N2CCCC(N)C2)n1 (centres unmarked) [Example 345]
Result: < 1 µM

Next:
Request: Give the reported value of IC50 for this record: Nc1nc(N)c(C(=O)Nc2cnccc2N2CCCC(N)C2)nc1Cl (centres unmarked) [Example 183]
Result: 1 to 10 µM

Request: Give the reported value of IC50 for this record: Nc1nc(N)c(-c2ccccc2C(F)(F)F)nc1C(=O)Nc1cnccc1N1CCCC(N)C1 (centres unmarked) [Example 341]
Result: 1 to 10 µM
